# SYSTEM: ATX (human His-tagged) (Homo sapiens (Human), UniProt Q13822)
Kindly apply the following: 1 if IC50 is less than 7 nM, -1 in every other case.

For this molecule, is IC50 lower than 7 nM? NS(=O)(=O)C1CCN(C(=O)c2ccc3c(c2)CN(C(=O)c2cc(OCC4CCOCC4)nc(C4CC4)c2)C3)CC1 [Example 2.01]
-1

What about O=C(c1cc(OCC2CCOCC2)nc(C2CC2)c1)N1Cc2nc(C(=O)N3CCc4c(O)noc4C3)oc2C1 [Example 3] ?
1

What about CC(C)(C)C(=O)Nc1cc(C(F)(F)F)cnc1COC(=O)N1Cc2nc(C(=O)N3CCC(S(N)(=O)=O)CC3)oc2C1 [Example 2.06] ?
1

What about CC(C)(C)C(=O)Nc1cc(C(F)(F)F)cnc1COC(=O)N1Cc2ccc(C(=O)N3CCc4onc(O)c4C3)cc2C1 [Example 2.05] ?
1

What about O=C(c1cc(OCC2CCOCC2)nc(C2CC2)c1)N1Cc2ccc(C(=O)N3CCc4c(O)noc4C3)cc2C1 [Example 2] ?
-1

What about O=C(c1cc(OCC2CCOCC2)nc(C2CC2)c1)N1CCc2cc(C(=O)N3CCc4[nH]nnc4C3)ccc2C1 [Example 1] ?
1

What about O=C(c1cc(OCC2CCOCC2)nc(C2CC2)c1)N1Cc2nc(C(=O)N3CCc4[nH]nnc4C3)oc2C1 [Example 1.01] ?
1

Hey, just so you know, these numbers are from patent US10882857B2.
